Taken from ChEMBL document CHEMBL2390929.

tested on: NCI-H322M; assay: Cytotoxicity against human NCI-H322M cells assessed as cell growth at 10^-5 M after 48 hrs by SRB assay; assay type: functional; conditions: read-out: Activity
Here the recorded growth at 10 µM is given for each entry.
parameterMeasured: growth at 10 µM (%)

>>> resultvalue("COc1ccc(-c2nnc(SC/C(=N/O)c3ccccc3)n2-c2ccccc2)cc1")
102
>>> resultvalue("C=CCn1c(SC/C(=N\\O)c2ccccc2)nnc1-c1ccc(OC)c(OC)c1")
96.6
>>> resultvalue("COc1cc(-c2nnc(SC/C(=N/O)c3ccccc3)n2-c2ccccc2)cc(OC)c1OC")
104
>>> resultvalue("COc1ccc(-c2nnc(SC/C(=N/O)c3ccccc3)n2-c2ccccc2)cc1OC")
103
>>> resultvalue("CCn1c(SC/C(=N/O)c2ccccc2)nnc1-c1ccc(OC)c(OC)c1")
99.4

====

tested on: ACHN; experiment: Cytotoxicity against human ACHN cells assessed as cell growth at 10^-5 M after 48 hrs by SRB assay; assay type: functional; conditions: read-out: Activity
parameterMeasured: growth at 10 µM (%)

>>> resultvalue("COc1ccc(-c2nnc(SC/C(=N/O)c3ccccc3)n2-c2ccccc2)cc1")
107
>>> resultvalue("C=CCn1c(SC/C(=N\\O)c2ccccc2)nnc1-c1ccc(OC)c(OC)c1")
97.8
>>> resultvalue("O/N=C(/CSc1nnc(-c2ccccc2)n1-c1ccccc1)c1ccccc1")
117
>>> resultvalue("CCn1c(SC/C(=N/O)c2ccccc2)nnc1-c1ccccc1")
105
>>> resultvalue("CCn1c(SC/C(=N/O)c2ccccc2)nnc1-c1ccc(OC)c(OC)c1")
103
>>> resultvalue("COc1ccc(-c2nnc(SC/C(=N/O)c3ccccc3)n2-c2ccccc2)cc1OC")
95.4
>>> resultvalue("COc1cc(-c2nnc(SC/C(=N/O)c3ccccc3)n2-c2ccccc2)cc(OC)c1OC")
99.3

====

system: Rattus norvegicus; assay: Gastrointestinal toxicity in albino rat assessed as ulcer index at 0.28 mmol/kg, po (reference value: 0.60 +/- 0.05); type: organism-based; conditions: in vivo
Overview of reported UI across a group of compounds:
parameterMeasured: UI

>>> resultvalue("COc1ccc(-c2nnc(SC/C(=N/O)c3ccccc3)n2-c2ccccc2)cc1")
7.57
>>> resultvalue("COc1cc(-c2nnc(SC/C(=N/O)c3ccccc3)n2-c2ccccc2)cc(OC)c1OC")
5.52
>>> resultvalue("COc1ccc2c(c1)c(CC(=O)O)c(C)n2C(=O)c1ccc(Cl)cc1 [INDOMETHACIN]")
63.45

====

Activity values for the compounds below.
assay: Induction of nitric oxide release in phosphate buffer at pH 7.4 at 0.1 mM after 4 hrs by Griess method in presence of 0.5 mM of N-acetylcysteine; assay type: physicochemical; details: pH 7.4, 4 h, 100 µM
parameterMeasured: Activity (mol/mol)

>>> resultvalue("CCn1c(SC/C(=N/O)c2ccccc2)nnc1-c1cc(OC)c(OC)c(OC)c1")
0.21
>>> resultvalue("O/N=C(/CSc1nnc(-c2ccccc2)n1-c1ccccc1)c1ccccc1")
0.13
>>> resultvalue("COc1ccc(-c2nnc(SC/C(=N/O)c3ccccc3)n2-c2ccccc2)cc1")
0.15
>>> resultvalue("CCn1c(SC/C(=N/O)c2ccccc2)nnc1-c1ccccc1")
0.13
>>> resultvalue("C=CCn1c(SC/C(=N/O)c2ccccc2)nnc1-c1cc(OC)c(OC)c(OC)c1")
0.13
>>> resultvalue("CCn1c(SC/C(=N/O)c2ccccc2)nnc1-c1ccc(OC)c(OC)c1")
0.24
>>> resultvalue("C=CCn1c(SC/C(=N/O)c2ccccc2)nnc1-c1ccc(OC)cc1")
0.15
>>> resultvalue("COc1ccc(-c2nnc(SC/C(=N/O)c3ccccc3)n2-c2ccccc2)cc1OC")
0.19
>>> resultvalue("C=CCn1c(SC/C(=N\\O)c2ccccc2)nnc1-c1ccc(OC)c(OC)c1")
0.17
>>> resultvalue("C=CCn1c(SC/C(=N\\O)c2ccccc2)nnc1-c1ccccc1")
0.16
>>> resultvalue("CCn1c(SC/C(=N/O)c2ccccc2)nnc1-c1ccc(OC)cc1")
0.19
>>> resultvalue("COc1cc(-c2nnc(SC/C(=N/O)c3ccccc3)n2-c2ccccc2)cc(OC)c1OC")
0.14

====

assay: Induction of nitric oxide release in phosphate buffer at pH 7.4 at 0.1 mM after 3 hrs by Griess method in presence of 0.5 mM of N-acetylcysteine; type: physicochemical; conditions: pH 7.4, 3 h, 100 µM
Entries and their Activity values follow.
parameterMeasured: Activity

>>> resultvalue("CCn1c(SC/C(=N/O)c2ccccc2)nnc1-c1ccccc1")
"0.12 mol/mol"
>>> resultvalue("CCn1c(SC/C(=N/O)c2ccccc2)nnc1-c1ccc(OC)cc1")
"0.14 mol/mol"
>>> resultvalue("C=CCn1c(SC/C(=N\\O)c2ccccc2)nnc1-c1ccccc1")
"0.13 mol/mol"
>>> resultvalue("C=CCn1c(SC/C(=N\\O)c2ccccc2)nnc1-c1ccc(OC)c(OC)c1")
"0.17 mol/mol"
>>> resultvalue("COc1ccc(-c2nnc(SC/C(=N/O)c3ccccc3)n2-c2ccccc2)cc1")
"0.09 mol/mol"
>>> resultvalue("C=CCn1c(SC/C(=N/O)c2ccccc2)nnc1-c1cc(OC)c(OC)c(OC)c1")
"0.12 mol/mol"
>>> resultvalue("C=CCn1c(SC/C(=N/O)c2ccccc2)nnc1-c1ccc(OC)cc1")
"0.12 mol/mol"

====

tested on: NCI/ADR-RES; assay: Cytotoxicity against human NCI/ADR-RES cells assessed as cell growth at 10^-5 M after 48 hrs by SRB assay; type: functional; conditions: read-out: Activity
parameterMeasured: growth at 10 µM (%)

>>> resultvalue("O/N=C(/CSc1nnc(-c2ccccc2)n1-c1ccccc1)c1ccccc1")
100
>>> resultvalue("COc1cc(-c2nnc(SC/C(=N/O)c3ccccc3)n2-c2ccccc2)cc(OC)c1OC")
98.8
>>> resultvalue("COc1ccc(-c2nnc(SC/C(=N/O)c3ccccc3)n2-c2ccccc2)cc1OC")
93.2
>>> resultvalue("CCn1c(SC/C(=N/O)c2ccccc2)nnc1-c1ccc(OC)c(OC)c1")
103
>>> resultvalue("CCn1c(SC/C(=N/O)c2ccccc2)nnc1-c1ccccc1")
103
>>> resultvalue("C=CCn1c(SC/C(=N\\O)c2ccccc2)nnc1-c1ccc(OC)c(OC)c1")
93
>>> resultvalue("COc1ccc(-c2nnc(SC/C(=N/O)c3ccccc3)n2-c2ccccc2)cc1")
97.9

====

test system: HOP-92; test: Cytotoxicity against human HOP92 cells assessed as cell growth at 10^-5 M after 48 hrs by SRB assay; type: functional; details: HOP-92, 48 h, read-out: Activity
# growth at 10 µM annotations
parameterMeasured: growth at 10 µM

>>> resultvalue("CCn1c(SC/C(=N/O)c2ccccc2)nnc1-c1ccc(OC)c(OC)c1")
"107%"
>>> resultvalue("C=CCn1c(SC/C(=N\\O)c2ccccc2)nnc1-c1ccc(OC)c(OC)c1")
"81.9%"
>>> resultvalue("CCn1c(SC/C(=N/O)c2ccccc2)nnc1-c1ccccc1")
"62.5%"
>>> resultvalue("COc1cc(-c2nnc(SC/C(=N/O)c3ccccc3)n2-c2ccccc2)cc(OC)c1OC")
"81.2%"
>>> resultvalue("COc1ccc(-c2nnc(SC/C(=N/O)c3ccccc3)n2-c2ccccc2)cc1OC")
"86.5%"
>>> resultvalue("COc1ccc(-c2nnc(SC/C(=N/O)c3ccccc3)n2-c2ccccc2)cc1")
"101%"

====

system: SK-MEL-5; assay: Cytotoxicity against human SK-MEL-5 cells assessed as cell growth at 10^-5 M after 48 hrs by SRB assay; type: functional; conditions: SK-MEL-5, 48 h, read-out: Activity
Consider the following compounds and their measured growth at 10 µM readings.
parameterMeasured: growth at 10 µM (%)

>>> resultvalue("CCn1c(SC/C(=N/O)c2ccccc2)nnc1-c1ccc(OC)c(OC)c1")
96.3
>>> resultvalue("C=CCn1c(SC/C(=N\\O)c2ccccc2)nnc1-c1ccc(OC)c(OC)c1")
101
>>> resultvalue("COc1ccc(-c2nnc(SC/C(=N/O)c3ccccc3)n2-c2ccccc2)cc1")
93.9
>>> resultvalue("CCn1c(SC/C(=N/O)c2ccccc2)nnc1-c1ccccc1")
100
>>> resultvalue("O/N=C(/CSc1nnc(-c2ccccc2)n1-c1ccccc1)c1ccccc1")
89.2
>>> resultvalue("COc1ccc(-c2nnc(SC/C(=N/O)c3ccccc3)n2-c2ccccc2)cc1OC")
85.8
>>> resultvalue("COc1cc(-c2nnc(SC/C(=N/O)c3ccccc3)n2-c2ccccc2)cc(OC)c1OC")
84.6

====

test: Induction of nitric oxide release in phosphate buffer at pH 7.4 at 0.1 mM after 2 hrs by Griess method in presence of 0.5 mM of N-acetylcysteine; type: physicochemical; conditions: pH 7.4, 2 h, 100 µM
parameterMeasured: Activity (mol/mol)

>>> resultvalue("CCn1c(SC/C(=N/O)c2ccccc2)nnc1-c1cc(OC)c(OC)c(OC)c1")
0.12
>>> resultvalue("CCn1c(SC/C(=N/O)c2ccccc2)nnc1-c1ccc(OC)cc1")
0.11
>>> resultvalue("COc1ccc(-c2nnc(SC/C(=N/O)c3ccccc3)n2-c2ccccc2)cc1OC")
0.17
>>> resultvalue("CCn1c(SC/C(=N/O)c2ccccc2)nnc1-c1ccccc1")
0.08
>>> resultvalue("CCn1c(SC/C(=N/O)c2ccccc2)nnc1-c1ccc(OC)c(OC)c1")
0.13
>>> resultvalue("C=CCn1c(SC/C(=N\\O)c2ccccc2)nnc1-c1ccccc1")
0.1
>>> resultvalue("C=CCn1c(SC/C(=N/O)c2ccccc2)nnc1-c1ccc(OC)cc1")
0.12
>>> resultvalue("C=CCn1c(SC/C(=N/O)c2ccccc2)nnc1-c1cc(OC)c(OC)c(OC)c1")
0.1
>>> resultvalue("O/N=C(/CSc1nnc(-c2ccccc2)n1-c1ccccc1)c1ccccc1")
0.1
>>> resultvalue("COc1ccc(-c2nnc(SC/C(=N/O)c3ccccc3)n2-c2ccccc2)cc1")
0.08
>>> resultvalue("COc1cc(-c2nnc(SC/C(=N/O)c3ccccc3)n2-c2ccccc2)cc(OC)c1OC")
0.11
>>> resultvalue("C=CCn1c(SC/C(=N\\O)c2ccccc2)nnc1-c1ccc(OC)c(OC)c1")
0.15
